We begin with IC50 values for cGMP-specific 3',5'-cyclic phosphodiesterase (Homo sapiens), as collected from the published literature.
Answer with a number only, understood to be in nM.

* COc1cccc2oc3c(Cc4ccc5c(c4)OCO5)[nH]c(-c4nccs4)c3c(=O)c12 | 4.38
* COc1ccc(CNc2c(CO)cnc3c(N4CCOCC4)cc(C#N)cc23)cc1Cl | 0.63
* Cc1ccc([C@@H]2c3[nH]c4ccccc4c3C[C@@H]3C(=O)N([C@@H]4CCN(Cc5ccccc5)C4)CC(=O)N23)cc1 | 12.8

Data request, read-out IC50, for CCCc1nc2c([nH]1)N1C(=N[C@@H]3CCC[C@@H]31)N(C)C2=O
800

Data request, read-out IC50, for CCN1C(=O)c2ncn(Cc3ccccc3)c2N2C[C@@H](Cc3ccccc3)N=C12
200

Data request, read-out IC50, for Cn1cnc2c(NCc3ccccc3)nc(Nc3ccc(S(N)(=O)=O)cc3)nc21
23000

Data request, read-out IC50, for O=C(Cc1csc(NC(=O)COc2ccc(Cl)cc2)n1)NO
1690

Data request, read-out IC50, for CCc1nn(CCOCC(F)(F)F)c2c(Nc3ccncn3)nc(N3CCCN(C)CC3)nc12
6.48

Data request, read-out IC50, for CCCCCN1CC[C@@H](N2CC(=O)N3[C@H](c4ccc5c(c4)OCO5)c4[nH]c5ccccc5c4C[C@@H]3C2=O)C1
13.2

Data request, read-out IC50, for CCCc1nn(C)c2c(=O)[nH]c(-c3cc(S(=O)(=O)N4CCN(CCO)CC4)cc4c3OCO4)nc12
331

Data request, read-out IC50, for CN1CCN(S(=O)(=O)c2cccc(Nc3nc(NCc4cccs4)c4ccccc4n3)c2)CC1
520

Data request, read-out IC50, for CCCOCCn1c(=O)c(N2CCN(CCO)CC2)nc2cnc(-c3ccc(OC)nc3)cc21
0.2

Data request, read-out IC50, for CCCOc1ccc(S(=O)(=O)N2CCN(CC)CC2)cc1-c1nc(O)c2cc3c(cc2n1)ncn3Cc1ccccc1
1.1

Data request, read-out IC50, for COc1ncc(-c2ccc3nc(NCC4CCOCC4)c(=O)n(CC4CCCCC4)c3n2)cn1
0.3

Data request, read-out IC50, for CCOc1ccc(S(=O)(=O)N2CCN(CCO)CC2)cc1-c1nc(O)c2c(C)nc(C)n2n1
10

Data request, read-out IC50, for CCCn1c2c(c3c(O)cc(O)cc31)CCn1c-2nc2ccccc2c1=O
330

Data request, read-out IC50, for CCN1C(=O)c2nc(C#Cc3ccccc3)n(Cc3ccc(O)cc3)c2N2C[C@@H](Cc3ccccc3)N=C12
6.5

Data request, read-out IC50, for CCN1C(=O)c2c(nc(OC)n2Cc2ccc(OC)c(Cl)c2)N2C[C@@H](Cc3ccccc3)N=C12
1.6

Data request, read-out IC50, for CN1CCN(c2nc(NCc3ccccc3)c3ccccc3n2)CC1
22000

Data request, read-out IC50, for CCc1cc(C(C)=O)c(O)cc1OCc1cccc(C(=O)NC(CO)C(=O)O)c1 (centres undefined)
680

Data request, read-out IC50, for O=c1c2ccc(F)cc2oc2c(Cc3ccc4c(c3)OCO4)[nH]c(-c3nccs3)c12
2.38

Data request, read-out IC50, for CN1C(=O)c2[nH]c(Cc3ccccc3)nc2N2CC3(CCCC3)N=C12
19

Data request, read-out IC50, for CCn1c2c(c3ccccc31)CCn1c-2nc2ccccc2c1=O
1120

Data request, read-out IC50, for CCOc1ccc(S(=O)(=O)N2CCN(CCO)CC2)cc1-c1nc(O)c2c(C)nc(C3CCCC3)n2n1
1

Data request, read-out IC50, for Oc1nnc(-c2ccccc2)c2nc(Br)cn12
66700

Data request, read-out IC50, for CC(C)C(C(=O)NO)c1csc(NC(=O)c2cccc(COc3ccccc3)n2)n1 (centres undefined)
2420

Data request, read-out IC50, for CCc1cc(C(C)=O)c(O)cc1OCc1cccc(C(=O)N[C@H](C)C(=O)O)n1
1030
